Value source: the supplement of paper PMC4862054

Tested on: HDQ-P1
measurement notes: normalised response (% of control), CellTox Green; higher = less cell death (100 = DMSO, 0 = benzethonium chloride kill control)
assay conditions: incubation time: 72 h
test readout: normalised response (%)
Give just the numeric value; % need not be written.

Task: Entry CC(C)(C#N)c1cc(Cn2cncn2)cc(C(C)(C)C#N)c1 [Anastrozole] (1000 nM) , system HDQ-P1: what normalised response was measured?
Output: 111

Task: Lab note: need normalised response for CN(C)CCN1C(=O)c2cccc3cc(N)cc(c23)C1=O [Amonafide] (1000 nM) on HDQ-P1, anyone have it?
Output: 106

Task: What normalised response appears in the records for this compound with HDQ-P1? CN(C)CCN1C(=O)c2cccc3cc(N)cc(c23)C1=O [Amonafide] (100 nM)
Output: 81.9
